Molecular target: T1, Cynomolgus monkey glycophorin A on Cynomolgus monkey red blood cells or red blood cell membranes (Cynomolgus monkey)
T1 construct: whole, on cells; also called Cyno RBC; Cynomolgus monkey RBC membranes
Assay: Fab 7 ug/ml on intact cyno RBC, unbound Fab by ELISA; pre-dilution
Readout: percentage of input antibody bound (%)

1) TPP-7782, affinity matured 6C12 Fab (Fab, V domains shown, Tested as Fab) VH: EVQLVQSGAEVKKPGASVKVSCKASGYTFTTYTIHWVRQAPGQGLEWMGYINPSSGYTRYNPKFKGRVTMTRDKSTSTAYMELRSLRSDDTAVYYCQTGTRDYWGQGTTVTVSS VL: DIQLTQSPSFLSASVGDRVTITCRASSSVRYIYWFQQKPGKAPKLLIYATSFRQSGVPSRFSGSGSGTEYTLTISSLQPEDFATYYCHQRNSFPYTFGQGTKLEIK; 94
2) TPP-7792, affinity matured 6C12 Fab (Fab, V domains shown, Tested as Fab with a 6xHIS tag) VH: EVQLVQSGAEVKKPGASVKVSCKASGYTFTTYAIHWVRQAPGQGLEWMGYINPSSGYTRYNPKFKGRVTMTRDKSTSTAYMELRSLRSDDTAVYYCWTGTRDYWGQGTTVTVSS VL: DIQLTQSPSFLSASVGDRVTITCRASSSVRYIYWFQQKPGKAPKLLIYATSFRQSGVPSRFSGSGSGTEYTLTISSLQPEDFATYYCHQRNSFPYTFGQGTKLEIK; 92
3) TPP-7778, affinity matured 6C12 Fab (Fab, V domains shown, Tested as Fab) VH: EVQLVQSGAEVKKPGASVKVSCKASGYTFTTYAIHWVRQAPGQGLEWMGYINPSSGYTRYNPKFKHRVTMTRDKSTSTAYMELRSLRSDDTAVYYCQTGTRDYWGQGTTVTVSS VL: DIQLTQSPSFLSASVGDRVTITCRASSSVRYIYWFQQKPGKAPKLLIYATSTLQSGVPSRFSGSGSGTEYTLTISSLQPEDFATYYCHQRNSFPYTFGQGTKLEIK; 81
4) TPP-7790, affinity matured 6C12 Fab (Fab, V domains shown, Tested as Fab with a 6xHIS tag) VH: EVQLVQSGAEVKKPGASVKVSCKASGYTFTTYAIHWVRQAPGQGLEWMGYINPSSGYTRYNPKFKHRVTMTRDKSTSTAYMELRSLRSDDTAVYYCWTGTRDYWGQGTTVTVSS VL: DIQLTQSPSFLSASVGDRVTITCRASSSVRYIYWFQQKPGKAPKLLIYATSFLQSGVPSRFSGSGSGTEYTLTISSLQPEDFATYYCHQRNSFPYTFGQGTKLEIK; 94
5) TPP-7795, affinity matured 6C12 Fab (Fab, V domains shown, Tested as Fab) VH: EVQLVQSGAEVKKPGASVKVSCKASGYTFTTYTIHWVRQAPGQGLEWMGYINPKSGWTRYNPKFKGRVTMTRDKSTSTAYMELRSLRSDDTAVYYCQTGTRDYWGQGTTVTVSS VL: DIQLTQSPSFLSASVGDRVTITCRASSSVSYIYWFQQKPGKAPKLLIYATSFLQSGVPSRFSGSGSGTEYTLTISSLQPEDFATYYCHQRNSFPYTFGQGTKLEIK; 73
